# Lookup of reported normalised viability keyed by entry
- System: Hs578T
- TEST_SUMMARY: normalised viability (% of control), CellTiter-Blue; higher = more viable cells (about 100 = DMSO control)
- TEST_CONDITIONS: 100 nM; incubation time: 72 h
Express it in %; write the number only.

Field: example entries. Status: answers known.
COMPOUND	TARGET_ENTITY	UNIT_SYMBOL	normalised viability
Cc1c(C(=O)Nc2ccc(N3C[C@@H](C)O[C@@H](C)C3)nc2)cccc1-c1ccc(OC(F)(F)F)cc1	Hs578T	%	72.5
CC/C(=C(\c1ccccc1)c1ccc(OCCN(C)C)cc1)c1ccccc1	Hs578T	%	91.7
Cc1c(N)nc([C@H](CC(N)=O)NC[C@H](N)C(N)=O)nc1C(=O)N[C@H](C(=O)N[C@H](C)[C@@H](O)[C@H](C)C(=O)N[C@H](C(=O)NCCc1nc(-c2nc(C(=O)NCCC[S+](C)C)cs2)cs1)[C@@H](C)O)[C@@H](OC1OC(CO)C(O)C(O)C1OC1OC(CO)C(O)C(OC(N)=O)C1O)c1cnc[nH]1 (some centres undefined)	Hs578T	%	68.7

# input for lookup
Form field normalised viability for item C[C@@H]1C[C@H]2[C@@H]3CCC4=CC(=O)C=C[C@]4(C)[C@@]3(F)[C@@H](O)C[C@]2(C)[C@@]1(O)C(=O)CO on Hs578T: 97.2

----------
Catalogue of normalised response values
- System: MDA-MB-453
- TEST_SUMMARY: normalised response (% of control), CellTiter-Glo; higher = more viable cells (100 = DMSO, 0 = benzethonium chloride kill control)
- TEST_CONDITIONS: incubation time: 72 h
Report as a plain number; the unit % is understood.

Please review the following examples before continuing.
COMPOUND	normalised response / %
Cc1c(C(=O)Nc2ccc(N3C[C@@H](C)O[C@@H](C)C3)nc2)cccc1-c1ccc(OC(F)(F)F)cc1 [Erismodegib] (10 nM)	81.8
Cc1cc2c(F)c(Oc3ncnn4cc(OC[C@@H](C)O)c(C)c34)ccc2[nH]1 [Brivanib] (0.1 nM)	104
CN1CCN(c2nc(C3=C(c4c[nH]c5ccccc45)C(=O)NC3=O)c3ccccc3n2)CC1 [Sotrastaurin] (10 nM)	96.1
C[C@@H](C(=O)O)c1ccc(-c2ccccc2)c(F)c1 [Tarenflurbil] (1000 nM)	96
CC[C@H](CC#N)OC(=O)N[C@@H](C)c1cccc(NC(=O)Nc2ccc(-c3cnco3)c(OC)c2)c1 [AVN944] (1 nM)	99.6
Cc1c(N)nc([C@H](CC(N)=O)NC[C@H](N)C(N)=O)nc1C(=O)N[C@H](C(=O)N[C@H](C)[C@@H](O)[C@H](C)C(=O)N[C@H](C(=O)NCCc1nc(-c2nc(C(=O)NCCC[S+](C)C)cs2)cs1)[C@@H](C)O)[C@@H](OC1OC(CO)C(O)C(O)C1OC1OC(CO)C(O)C(OC(N)=O)C1O)c1cnc[nH]1 (some centres not stated) [Bleomycin] (1000 nM)	91
COc1cc2c(cc1-c1c(C)noc1C)ncc1[nH]c(=O)n([C@H](C)c3ccccn3)c12 [I-BET151] (1 nM)	102
CC(C)C[C@H](NC(=O)[C@H](CCc1ccccc1)NC(=O)CN1CCOCC1)C(=O)N[C@@H](Cc1ccccc1)C(=O)N[C@@H](CC(C)C)C(=O)[C@@]1(C)CO1 [Carfilzomib] (0.1 nM)	108
Cn1cc(C[C@@H](N)C(=O)O)c2ccccc21 [1-methyl-D-tryptophan] (5 nM)	90.1
CC[C@H](CC#N)OC(=O)N[C@@H](C)c1cccc(NC(=O)Nc2ccc(-c3cnco3)c(OC)c2)c1 [AVN944] (1000 nM)	84.4

Entry COc1cc(Nc2ncc(F)c(Nc3ccc4c(n3)N(COP(=O)(O)O)C(=O)C(C)(C)O4)n2)cc(OC)c1OC [Fostamatinib] (250 nM) , normalised response reported as 93.7

// normalised response value for CN1CCc2c(c3ccccc3n2Cc2ccc(C(=O)NO)cc2)C1 [Tubastatin A] (1 nM) : 103

// field: normalised response; key: C[C@@H]1C[C@H]2[C@@H]3CCC4=CC(=O)C=C[C@]4(C)[C@@]3(F)[C@@H](O)C[C@]2(C)[C@@]1(O)C(=O)CO [Dexamethasone] (1 nM) ; value = 102

Field normalised response (entry NC(=O)c1cccc2cn(-c3ccc([C@@H]4CCCNC4)cc3)nc12 [MK-4827] (10 nM) ) reads 105

Lab book: normalised response of CC(C)C(=O)Nc1ccc([N+](=O)[O-])c(C(F)(F)F)c1 [Flutamide] (10 nM) noted as 109
